assay: Mouse plasma stability; type: in vitro ADME
Numbered stars: 1 amine (or outer) side, 2 acyl side, 3 side chain; on linkers, the order of the positions; unused ones are H or OH. Bridge positions count the residues as written; N and C are the ends. Peptide text beside a SMILES is read from it. TATB = O=C(C[*:1])N1CN(C(=O)C[*:2])CN(C(=O)C[*:3])C1
ENDPOINT_NAME: half-life (h)
Provide only the numeric value, understood in h.

Inquiry: Entry under review: CC[C@H](C)[C@@H]1NC(=O)[C@@H]2CSCC(=O)N3CN(CN(C3)C(=O)CSC[C@H](NC(C)=O)C(=O)N[C@@H](CO)C(=O)N3CCC[C@H]3C(=O)N[C@@H](CC(=O)O)C(=O)N[C@@H](C)C(=O)N[C@@H](Cc3c[nH]cn3)C(=O)N[C@@H](CC(C)C)C(=O)NCC(=O)N2)C(=O)CSC[C@@H](C(N)=O)NC(=O)[C@H](Cc2ccc(O)cc2)NC(=O)[C@H](CO)NC1=O [BCY15891] (Ac-CSPDAHLGCISYC-NH2; linker 1-9-13 via TATB) . Reported half-life?
Reply text: 22.7
